- system.tested: ER in MCF-7 cells (Homo sapiens (Human))
- Sequence (P03372 whole entry): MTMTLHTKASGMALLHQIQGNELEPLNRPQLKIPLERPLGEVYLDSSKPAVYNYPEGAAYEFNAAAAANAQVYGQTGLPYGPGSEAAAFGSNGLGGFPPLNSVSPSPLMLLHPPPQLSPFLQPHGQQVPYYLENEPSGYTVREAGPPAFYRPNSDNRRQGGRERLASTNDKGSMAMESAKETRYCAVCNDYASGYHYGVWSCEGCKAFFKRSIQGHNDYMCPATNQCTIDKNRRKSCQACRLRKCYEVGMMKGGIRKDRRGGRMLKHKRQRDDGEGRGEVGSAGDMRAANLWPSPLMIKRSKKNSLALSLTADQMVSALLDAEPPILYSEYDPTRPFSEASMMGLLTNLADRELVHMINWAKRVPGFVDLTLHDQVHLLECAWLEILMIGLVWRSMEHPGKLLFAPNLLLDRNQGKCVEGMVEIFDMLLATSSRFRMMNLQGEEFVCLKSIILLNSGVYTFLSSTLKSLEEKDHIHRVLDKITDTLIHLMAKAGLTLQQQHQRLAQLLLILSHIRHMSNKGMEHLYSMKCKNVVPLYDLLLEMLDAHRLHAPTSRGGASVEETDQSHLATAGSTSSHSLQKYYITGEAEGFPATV
- method.notes: In-cell Western (ICW) ER degradation assay in MCF-7 cells
- Assay type: cell-based
- condition.info: MCF7, read-out: MCF7 Dmax, MCF-7, maximal ER degradation, 16 hrs treatment
Kindly supply the reported Dmax values for the records listed here.

Example cases with answers are listed next.
molecule	endpoint.label	meas.value
O=C1CC[C@H](N2Cc3c(ccc4c3OCC43CCN(CC4CC5(CCN(c6ncc([C@@H]7c8ccc(O)cc8CC[C@@H]7c7ccccc7)cn6)CC5)C4)CC3)C2=O)C(=O)N1	Dmax	50 to 75%
O=C1CCC(Nc2ccc(C34CCN(C[C@@H]5COC6(CCN(c7ccc([C@@H]8c9ccc(O)cc9CC[C@@H]8c8ccccc8)cc7)CC6)C5)CC3C4(F)F)cc2)C(=O)N1 (some centres unmarked)	Dmax	< 25%
O=C1CC[C@H](N2Cc3c(ccc4c3OCC43CCN(CC4CCC5(CC4)CN(c4ncc([C@@H]6c7ccc(O)cc7CC[C@@H]6c6ccccc6)cn4)C5)CC3)C2=O)C(=O)N1	Dmax	50 to 75%
O=C1CC[C@H](N2Cc3c(ccc4c3OCC43CCN(CC4CCC5(CC4)CN(c4ccc([C@@H]6c7ccc(O)cc7CC[C@@H]6c6ccccc6)cc4)C5)CC3)C2=O)C(=O)N1	Dmax	> 75%

Continue with the next molecule.
Consider the molecule COc1cc(N2CC3(CCC(CN4CCC5(CC4)COc4cc6c(cc45)CN([C@H]4CCC(=O)NC4=O)C6=O)CC3)C2)c(F)cc1[C@H]1c2ccc(O)cc2CC[C@H]1c1ccccc1 and give its measured Dmax.
25 to 50%
